Parameter: pKd. Scope: all listed entries.
molecular target: Human His-tagged RBP4 (residues 19-201), soluble (human, UniProt P02753 19-201); experiment: ITC, + A1120; mean ± S.D., n=4
pKd: −log10 of the molar value.

BINDER	pKd
RS3, rcSso7d-based RBP4 binding interaction partner, soluble protein (designed binder, Expressed in E. coli as His6-SUMO fusion; Monomeric by SEC) ATVKLTYQGEEKQVDISKIKRVARYGQNIYFSYDEGGGAYDYGAVSEKDAPKELLQMLEKQ	8.15
RS5, rcSso7d-based RBP4 binding interaction partner, soluble protein (designed binder, Expressed in E. coli as His6-SUMO fusion; Monomeric by SEC) ATVKFTYQGEEKQVDISKIKRVARYGQGIYFDYGEGGGAWGYGSVSEEDAPKELLQMLEKQ	7.77
RF2, FN3-based RBP4 binding interaction partner, soluble protein (designed binder, Expressed in E. coli as His6-SUMO fusion; Monomeric by SEC) VSDVPRDLEVVAATPTSLLISWYYPNASHAGYYRITYGETGGNSPVQEFTVPFSIRYTIATISGLKPGVDYTITVYAVTDYAYYYRLSEPISINYRTEIDKPSQ	6.55
